# System: COLO 205 colon
# protocolDetails: NCI-60 one-dose screen, 48 h
# experimentalSetup: 10 µM unless noted
Compounds without any hit were thinned out: in the full panel of roughly 83,000, 20% have a hit. Active and inactive are the calls of the source. Rule for the calls: active = growth percent below 10; inactive = the rest.
Hello, when you answer, please use one of the following outcomes: active, inactive

Worked set:
compound	group
COc1ccc(/C=C/c2n[nH]c3ccc(N4CCOC4=O)cc23)cc1	active
c1ccc(-c2nnc(Nc3ccc4c(c3)OCCO4)o2)c(NCc2ccncc2)c1	active
CC(C)CN(C(=O)c1ccc(Cl)cc1)c1c(N)n(CC(C)C)c(=O)[nH]c1=O	inactive
CCc1c(Nc2ccc(C)cc2)nc(N)[nH]c1=O	inactive
C=CCn1c(SCC(=O)Nc2ccc(C(=O)/C=C/c3cc(OC)c(OC)c(OC)c3)cc2)nnc1-c1cc(OC)c(OC)c(OC)c1	inactive

input: Any idea what this test logged for CC(=O)c1c(C)[nH]c(-c2nc3ccc(N4CCN(C)CC4)cc3[nH]2)c1-c1ccccc1 ?
output: inactive

input: Any idea what this test logged for O=C(N=Nc1c(O)[nH]c2ccc(F)cc12)c1cc2ccccc2[nH]1 ?
output: inactive

input: Any idea what this test logged for COc1ccc(/C=C/C(=O)c2ccc(OC)c(OC)c2)cc1O ?
output: inactive

input: Any idea what this test logged for COc1ccc(OC)c(/C=C/[C@H]2O[C@@H](C)[C@H](O)[C@@H]2O)c1 ?
output: inactive

====

# Tested on: KM12 colon
# protocolDetails: NCI-60 one-dose screen, 48 h (100 = growth as untreated, 0 = no growth, -100 = all killed)
# experimentalSetup: 10 µM unless noted
This is part of a sample that, as a whole, favours compounds with a hit. Of some 83,000 tested, about 20% had one in any assay. Calls of active or inactive are those of the source. Rule for the calls: active = growth percent below 10; inactive = the rest.
assayEndpoint: growth

molecule	growth
COc1ccc(C(=O)c2cc(C)c(OC)c(C)c2)c(OC)c1O	7.53% (active)

Record CN(C)C(=O)c1cc2cnc(Nc3ccc(-c4csc5c(=O)cc(N6CCOCC6)oc45)cc3)nc2n1C1CCCC1 . Reported growth: -86.9% (active)

Record COc1cc(NCC(C)(O)CN(CC(C)C)CC(C)C)c2nc(C)ccc2c1 (centres undefined) . Reported growth: 63.2% (inactive)

Record Cc1ccccc1CNc1ccc(N2CCOCC2)cc1 . Reported growth: 100% (inactive)

Record C=C(C)[C@@H]1CC[C@]2(C=O)CC[C@]3(C)[C@H](CC[C@@H]4[C@@]5(C)CCCNC(C)(C)[C@@H]5CC[C@]43C)[C@@H]12 . Reported growth: 58.6% (inactive)

Record Cc1c2c(cc[n+]1Cc1ccc(F)cc1)c1ccc(OCc3cccc(F)c3)cc1n2Cc1cccc(F)c1 . Reported growth: -98.8% (active)

====

# System: NCI-H522 lung
# protocolDetails: NCI-60 one-dose screen, 48 h
# experimentalSetup: 10 µM unless noted
The panel holds about 83,000 compounds, 20% with a hit somewhere; the sample as a whole holds those more often. Active and inactive are the calls of the source. Rule for the calls: active = growth percent below 10; inactive = the rest.
Hello, when you answer, please use one of the following outcomes: 1 for active, -1 for inactive

Worked set:
compound	targetUnderTest	group
CCNC(=S)NNC(=O)c1cc2ccc1CCc1ccc(cc1)CC2	NCI-H522 lung	-1
COc1ccc(-c2nc(N/N=C/c3c[nH]c4ccccc34)nc(N3CCOCC3)c2C#N)cc1	NCI-H522 lung	-1

input: Any idea what this test logged for COc1ccc(-c2nc(SCC(C)C)nc(N/N=C(/C)c3ccc(OC)c(OC)c3)c2C#N)cc1 ?
output: -1

input: Any idea what this test logged for COc1ccccc1/C=C1\COc2ccc(-c3ccccc3)cc2C1=O ?
output: -1

====

Attribute: growth
# System: MDA-MB-231 breast
# protocolDetails: NCI-60 one-dose screen, 48 h (100 = growth as untreated, 0 = no growth, -100 = all killed)
# experimentalSetup: 10 µM unless noted
The panel holds about 83,000 compounds, 20% with a hit somewhere; the sample as a whole holds those more often. Calls of active or inactive are those of the source. How the source made its calls: active means growth percent below 10; inactive means the rest.

compound	growth
Clc1nc(Nc2ccccc2)nc(Nc2ccccc2)n1	88.8% (inactive)

Consider now this further compound.
Record O=C(Nc1cccc(Cl)c1)Oc1c(Br)c(Br)c(Br)c(Br)c1Br . Reported growth: 103% (inactive)

====

# Tested on: SF-295 CNS
# protocolDetails: NCI-60 one-dose screen, 48 h (100 = growth as untreated, 0 = no growth, -100 = all killed)
# experimentalSetup: 10 µM unless noted
About 83,000 compounds went through this panel and 20% of them were active in at least one assay; those are over-represented in the sample as a whole.
Tick Condition met if growth is 90% or greater. Tick Condition not met if growth is less than 90%.

Worked set:
smilesData	group
Cc1ccc2[nH]c(=S)n(-c3ccc(S(=O)(=O)Nc4ccc(Cl)nn4)cc3)c(=O)c2c1	Condition met
COc1c(Cl)cc(Cl)c2ccc(C=C3C(=O)NC(=S)NC3=O)nc12	Condition met
CNC(=O)c1c(NC(=O)c2ccc(C(C)C)cc2)sc2c(CN(C)C)c(O)ccc12	Condition met

Moving on to another compound below.
input: Does the reported growth for N#Cc1c(NC(=O)c2cccc(Br)c2)sc2c1CCCC2 fall at or above the 90% mark?
output: Condition not met

====

# Tested on: MDA-MB-435 melanoma
# protocolDetails: NCI-60 one-dose screen, 48 h
# experimentalSetup: 10 µM unless noted
# Description: Growth inhibition of the MDA-MB-435 human Melanoma tumor cell line is measured as a screen for anti-cancer activity. Cells are grown in 96 well plates and exposed to the test compound for 48 hours. Compounds are tested at a single concentration, which is 10^-5 M for most compounds. The reported endpoint is percent growth (GI% or GIPRCNT), where numbers from 0 - 100% represent growth inhibition, and numbers from -100% - 0 represent cell death. […]
This is part of a sample that, as a whole, favours compounds with a hit. Of some 83,000 tested, about 20% had one in any assay. The source made the active and inactive calls. How the source made its calls: active means growth percent below 10; inactive means the rest.
Hello, when you answer, please use one of the following outcomes: 1 = active, -1 = inactive

Worked set:
molecule	group
N/C(=N\N=C\c1cc2ccccc2s1)N/N=C/c1cc2ccccc2s1	-1
NNC(=O)/C(=C\c1ccc([N+](=O)[O-])cc1)CC(=O)c1ccc(Cl)c(Cl)c1	-1

input: Any idea what this test logged for O=C1/C(=C\c2cn(Cc3ccccc3)c3ccc(Br)cc23)c2ccccc2N1c1c(Cl)cccc1Cl ?
output: -1

input: Any idea what this test logged for O=C(CCN1CCCC1)Nc1ccc2c(NCc3ccc(F)cc3)c3ccccc3nc2c1 ?
output: 1

input: Any idea what this test logged for COc1ccc(/C=C\c2nc3ccccc3s2)cc1OP(=O)(O)O ?
output: 1

input: Any idea what this test logged for COc1ccc(-c2nn(Cc3ccccc3)c3c2-c2oncc2CC3)cc1OC ?
output: -1

input: Any idea what this test logged for COC(=O)C1=C(C(=O)ONCCN(C)C)C2C=CC1(C(Cc1ccccc1)Nc1ccc(F)cc1)O2 (centres undefined) ?
output: -1

====

# Tested on: SK-OV-3 ovarian
# protocolDetails: NCI-60 one-dose screen, 48 h
# experimentalSetup: 10 µM unless noted
This is part of a sample that, as a whole, favours compounds with a hit. Of some 83,000 tested, about 20% had one in any assay. Active and inactive are the calls of the source. The calls were made as follows: active = growth percent below 10; inactive = the rest.
Hello, when you answer, please use one of the following outcomes: active, inactive

Worked set:
molecule	group
CCC(=O)c1ccc(O)c(OC)c1	inactive
COc1ccc(C(=O)c2cc3c(N)c(C(=O)Nc4cccc5ccccc45)sc3nc2C)cc1	inactive
[2H]C1([2H])NC([2H])([2H])C([2H])([2H])N(c2ccc(Nc3ncc4cc(C(=O)N(C)C)n(C5CCCC5)c4n3)nc2)C1([2H])[2H]	inactive
CCSc1ccc2c(c1)N(CCCN1CCN(C)CC1)c1ccccc1S2	inactive
FC(F)(F)c1cccc(Nc2ccccc2)c1	inactive

input: Any idea what this test logged for COc1ccccc1N1CCN(C(=O)c2ccc3nc(NC(=O)c4ccc(NCCc5ccccc5)c([N+](=O)[O-])c4)sc3c2)CC1 ?
output: inactive

input: Any idea what this test logged for COc1ccccc1C(C[N+](=O)[O-])c1c(-c2ccccc2)[nH]c2cc(C)ccc12 (stereo not given) ?
output: inactive

input: Any idea what this test logged for Cc1[nH]n(-c2cccc(Cl)c2)c(=O)c1/C=C1\C=Nc2ccc(Br)cc21 ?
output: active

input: Any idea what this test logged for O=S(=O)(NCCNc1nccc(-c2c(-c3ccc(F)c(O)c3)nc3sccn23)n1)c1ccccc1 ?
output: inactive

input: Any idea what this test logged for Cc1ccc2nc3c(cc2c1)CSc1nnc(-c2ccc[nH]c2=S)n1N3 ?
output: inactive

input: Any idea what this test logged for Cn1c(COC(=O)NCCN2CCOCC2)nc2c(N3CCOCC3)nc(-c3ccccc3)nc21 ?
output: inactive

input: Any idea what this test logged for CC(=O)Nc1ccc(S(=O)(=O)NC2CCCCC2)cc1 ?
output: inactive

input: Any idea what this test logged for C#Cc1cccc(NC(=O)Nc2ccc(NC(=O)CCl)cc2)c1 ?
output: active

input: Any idea what this test logged for COc1cc2nc(-c3ccc(C(F)(F)F)cc3)cc(OCCCN3CCC(O)CC3)c2cc1OC ?
output: inactive

input: Any idea what this test logged for CC(=O)c1c[nH]c2ccc(-c3ccnc(Nc4ccc(NC(=O)C5CCCC5)c(CN5CCOCC5)c4)n3)cc12 ?
output: inactive

input: Any idea what this test logged for CCOC(=O)N1CCc2c(sc3nc4nc[nH]n4c(=O)c23)C1 ?
output: inactive

input: Any idea what this test logged for O=C(N/N=C/c1ccncc1)c1ccccc1Nc1cccc(C(F)(F)F)c1 ?
output: inactive

input: Any idea what this test logged for COc1ccccc1Nc1cc(O)c2c(=O)cc(-c3ccccc3)oc2c1 ?
output: inactive

input: Any idea what this test logged for COc1nc(N)nc(-n2c(-c3ccc(C)cc3)nc3ccccc32)c1NCc1ccc(C)cc1 ?
output: inactive

input: Any idea what this test logged for CN1C(=O)N(C)[C@H]2NC(NN)=N[C@H]21 ?
output: inactive
